Data provenance is ChEMBL document CHEMBL1136718.

- Test system: Jurkat
- test_protocol: Growth inhibitory activity against human Jurkat leukemia cell line (JLC)
- Assay type: functional, cell-based
measured_metric: IC50 (nM)

molecule=Cc1cccc2cc3c(=O)n([C@@H](C)c4ccccc4)cc(C(=O)NCCN(C)C)c3nc12 measured_metric=IC50 reported_measurement=1070
molecule=CN(C)CCNC(=O)c1cn(CCN(C)C)c(=O)c2cc3ccccc3nc12 measured_metric=IC50 reported_measurement=123
molecule=Cc1cccc2cc3c(O)ncc(C(=O)NCCN(C)C)c3nc12 measured_metric=IC50 reported_measurement=26
molecule="COc1cc([C@@H]2c3cc4c(cc3[C@@H](O[C@@H]3O[C@@H]5CO[C@@H](C)O[C@H]5[C@H](O)[C@H]3O)[C@H]3COC(=O)[C@H]23)OCO4)cc(OC)c1O [ETOPOSIDE]" measured_metric=IC50 reported_measurement=160
